- Tested on: Mycobacterium tuberculosis
- assay_explanation: Antitubercular activity against isoniazid/rifampicin multidrug-resistant Mycobacterium tuberculosis FJ05120 clinical isolates assessed as bacterial growth inhibition by MABA
- Assay type: functional
Below, each entry is listed with its recorded MIC.

smiles_code	tested_target	MIC
Cc1nnsc1C(=O)Nc1nc2ccccc2o1	Mycobacterium tuberculosis	0.48 µM
COC(=O)c1ccc2oc(NC(=O)c3snnc3C)nc2c1	Mycobacterium tuberculosis	1.57 µM
Cc1nnsc1C(=O)Nc1nc2cc(N3CCOCC3)ccc2o1	Mycobacterium tuberculosis	23.2 µM
Cc1nnsc1C(=O)Nc1nc2cc(-c3ccncc3)ccc2o1	Mycobacterium tuberculosis	0.74 µM
CO[C@H]1/C=C/O[C@@]2(C)Oc3c(C)c(O)c4c(O)c(c(/C=N/N5CCN(C)CC5)c(O)c4c3C2=O)NC(=O)/C(C)=C\C=C\[C@H](C)[C@H](O)[C@@H](C)[C@@H](O)[C@@H](C)[C@H](OC(C)=O)[C@@H]1C	Mycobacterium tuberculosis	> 311 µM

* * *

- Test system: Mycobacterium tuberculosis
- assay_explanation: Antitubercular activity against isoniazid/rifampicin multidrug-resistant Mycobacterium tuberculosis FJ05120 clinical isolates assessed as bacterial growth inhibition by MABA
- Assay type: functional
quantity_name: MIC (µM)

> print(dat)
                                smiles.code  result.unit  data.value
1                           NNC(=O)c1ccncc1           µM        7.29
2  Cc1nnsc1C(=O)Nc1nc2cc(-c3cnn(C)c3)ccc2o1           µM        0.73
3                O=C(Nc1nc2ccccc2o1)c1ccco1           µM        70.1
4               Cc1nnsc1C(=O)Nc1nc2ncccc2o1           µM        3.83

Data credit: ChEMBL document CHEMBL4706616
